- MEASUREMENT_TARGET: HLA A2.1 molecule (Homo sapiens, UniProt P04439, D140Y/D185E/D98H/E176V/E277Q/G131W/G231S/I119V/I121R/I166T/I218V/L300P/L318F/N151K/N90K/P208A/P217A/Q86G/Q94H/R138H/R169H/T345S)
- PROTOCOL_DETAILS: Stability of the peptide/HLA A2.1 complex (DC50) on T2 cells, flow cytometry
- Format: binding
- ASSAY_CONTEXT: […]; arrow in neighbouring cell gives direction
- Experimental: For each incubation time, the cells are then labeled, as indicated above, with the BB7.2 antibody, and analyzed by flow cytometry in order to evaluate the amount of peptide/HLA A2.1 complex present at their surface. […] The DC50 (dissociation complex: DC) is defined as being the time required for the loss of 50% of the HLA A2.1/peptide complexes stabilized at t=0.
Measured DC50 Y1-DC50 WT, listed per entry.
MEASURE_NAME: DC50 Y1-DC50 WT (h)

[[record]]
sequence_text = "TDQVPFSV [gp100 209, reference compound]"
comparator = "="
reported = 2

[[record]]
sequence_text = "SLADTNSLAV [gp100 570, reference compound]"
comparator = ">"
reported = 2

[[record]]
sequence_text = "QLMPYGCLL [HER-2/neu 799, reference compound]"
comparator = ">"
reported = 2

[[record]]
sequence_text = "TLEEITGYL [HER-2/neu 402]"
comparator = ">"
reported = 2

[[record]]
sequence_text = "LLDDEAGPL [HBV pol 28]"
comparator = ">"
reported = 2

[[record]]
sequence_text = "ELVSEFSRM [HER-2/neu 971, reference compound]"
comparator = "="
reported = 2

[[record]]
sequence_text = "PLQPEQLQV [HER-2/neu 391]"
comparator = ">"
reported = 6

[[record]]
sequence_text = "VLYRYGSFSV [gp100 476, reference compound]"
comparator = "="
reported = 2

[[record]]
sequence_text = "LLGCAANWIL [HBV pol 765]"
comparator = "="
reported = 4

[[record]]
sequence_text = "AMLGTHTMEV [gp100 177, reference compound]"
comparator = "="
reported = 2

[[record]]
sequence_text = "VLVKSPNHV [HER-2/neu 851, reference compound]"
comparator = "="
reported = 2

[[record]]
sequence_text = "PLEEELPRL [HBV pol 594]"
comparator = ">"
reported = 6

[[record]]
sequence_text = "LLDGTATLRL [gp 100 457, reference compound]"
comparator = ">"
reported = 2


* * *

Measured DC50, listed per entry.
- MEASUREMENT_TARGET: HLA A2.1 molecule (Homo sapiens, UniProt P04439, D140Y/D185E/D98H/E176V/E277Q/G131W/G231S/I119V/I121R/I166T/I218V/L300P/L318F/N151K/N90K/P208A/P217A/Q86G/Q94H/R138H/R169H/T345S)
- PROTOCOL_DETAILS: Stability of the peptide/HLA A2.1 complex (DC50) on T2 cells, flow cytometry
- Type: binding
MEASURE_NAME: DC50 (h)

[[record]]
sequence_text = "YLTSIISAV [HER-2/neu 650Y1]"
result_unit = "h"
comparator = "="
reported = 6

[[record]]
sequence_text = "YLQPEQLQV [HER-2/neu 391Y1]"
result_unit = "h"
comparator = "="
reported = 6

[[record]]
sequence_text = "PLTSIISAV [HER-2/neu 650]"
result_unit = "h"
comparator = "<"
reported = 2

[[record]]
sequence_text = "YLIHHNTHL [HER-2/neu 466Y1]"
result_unit = "h"
comparator = "="
reported = 6

[[record]]
sequence_text = "YLEEITGYL [HER-2/neu 402Y1]"
result_unit = "h"
comparator = "="
reported = 4


* * *

- MEASUREMENT_TARGET: HLA A2.1 molecule (Homo sapiens, UniProt P04439, D140Y/D185E/D98H/E176V/E277Q/G131W/G231S/I119V/I121R/I166T/I218V/L300P/L318F/N151K/N90K/P208A/P217A/Q86G/Q94H/R138H/R169H/T345S)
- Type: binding
- ASSAY_CONTEXT: native TERT peptides; reference peptide HIVpol 589
Response key: YES means RA >= 1; NO means RA < 1.

[[record]]
sequence_text = "QLLRSFFHFL [mp 545]"
category_label = "YES"

[[record]]
sequence_text = "ILAKFLHWL [mhp 540]"
category_label = "NO"

[[record]]
sequence_text = "FLFWLMDTYV [mp 534]"
category_label = "NO"

[[record]]
sequence_text = "RLFFYRKSV [mhp 572]"
category_label = "YES"

[[record]]
sequence_text = "SLFDFFHFL [mp 797]"
category_label = "YES"

[[record]]
sequence_text = "ILATFLAWL [mp 530]"
category_label = "NO"

[[record]]
sequence_text = "FLSTLVHGV [mp 676]"
category_label = "YES"

[[record]]
sequence_text = "DLQVNSLQTV [mhp 988]"
category_label = "YES"


* * *

- Test system: RMAS-HHD targets loaded with peptide
- PROTOCOL_DETAILS: Immunogenicity: CTL generation in HHD transgenic mice, 51Cr lysis of peptide-loaded targets
- Assay type: in vivo
- ASSAY_CONTEXT: HHD mice (also humans)
MEASURE_NAME: immunogenicity (in words)

[[record]]
sequence_text = "ALIHHNTHL [HER-2/neu 466]"
measurement_target = "RMAS-HHD targets loaded with peptide"
reported = "nonimmunogenic"

[[record]]
sequence_text = "ILLVVVLGV [HER-2/neu 661]"
measurement_target = "RMAS-HHD targets loaded with peptide"
reported = "non-immunogenic"

[[record]]
sequence_text = "EMMTACQGV [E9V]"
measurement_target = "RMAS-HHD targets loaded with peptide"
reported = "not immunogenic"

[[record]]
sequence_text = "ILTVILGVL [Mart-1 32, reference compound]"
measurement_target = "RMAS-HHD targets loaded with peptide"
reported = "non-immunogenic"

[[record]]
sequence_text = "PLTSIISAV [HER-2/neu 650]"
measurement_target = "RMAS-HHD targets loaded with peptide"
reported = "nonimmunogenic"

[[record]]
sequence_text = "LLDTGADDTV [L10V]"
measurement_target = "RMAS-HHD targets loaded with peptide"
reported = "not immunogenic"

[[record]]
sequence_text = "PLQPEQLQV [HER-2/neu 391]"
measurement_target = "RMAS-HHD targets loaded with peptide"
reported = "nonimmunogenic"

[[record]]
sequence_text = "TLEEITGYL [HER-2/neu 402]"
measurement_target = "RMAS-HHD targets loaded with peptide"
reported = "nonimmunogenic"


* * *

- MEASUREMENT_TARGET: HLA A2.1 molecule (Homo sapiens, UniProt P04439, D140Y/D185E/D98H/E176V/E277Q/G131W/G231S/I119V/I121R/I166T/I218V/L300P/L318F/N151K/N90K/P208A/P217A/Q86G/Q94H/R138H/R169H/T345S)
- Format: binding
- ASSAY_CONTEXT: HIV 1 peptides; […]
MEASURE_NAME: RA, Native peptides

[[record]]
sequence_text = "RLRDLLLIV [R9V]"
measure_name = "RA, Native peptides"
reported = ">100"

[[record]]
sequence_text = "VLDVGDAYFSV [V11V]"
measure_name = "RA, Native peptides"
reported = 4.5

[[record]]
sequence_text = "KLTPLCVSL [K9L]"
measure_name = "RA, Native peptides"
reported = 1.35

[[record]]
sequence_text = "LLDTGADDTV [L10V]"
measure_name = "RA, Native peptides"
reported = 10

[[record]]
sequence_text = "PLTFGWCFKL [P10L]"
measure_name = "RA, Native peptides"
reported = ">100"

[[record]]
sequence_text = "VIYQYMDDL [V9L]"
measure_name = "RA, Native peptides"
reported = ">100"

[[record]]
sequence_text = "PLVKLWYQL [P9L]"
measure_name = "RA, Native peptides"
reported = ">100"

[[record]]
sequence_text = "AFHNVAREL [A9L]"
measure_name = "RA, Native peptides"
reported = ">100"


* * *

- MEASUREMENT_TARGET: HLA A2.1 molecule (Homo sapiens, UniProt P04439, D140Y/D185E/D98H/E176V/E277Q/G131W/G231S/I119V/I121R/I166T/I218V/L300P/L318F/N151K/N90K/P208A/P217A/Q86G/Q94H/R138H/R169H/T345S)
- Assay type: binding
- ASSAY_CONTEXT: native peptides; relative affinity vs reference peptide HIVpol 589; lower RA = stronger binding
MEASURE_NAME: RA

[[record]]
sequence_text = "AMLGTHTMEV [gp100 177, reference compound]"
measure_name = "RA"
reported = 0.5

[[record]]
sequence_text = "TLEEITGYL [HER-2/neu 402]"
measure_name = "RA"
reported = 19.0

[[record]]
sequence_text = "VLYRYGSFSV [gp100 476, reference compound]"
measure_name = "RA"
reported = 10.0

[[record]]
sequence_text = "LLGCAANWIL [HBV pol 765]"
measure_name = "RA"
reported = 2.0

[[record]]
sequence_text = "PLEEELPRL [HBV pol 594]"
measure_name = "RA"
reported = 4.2

[[record]]
sequence_text = "FLPWHRLFLL [Tyrosinase 207]"
measure_name = "RA"
reported = ">50.0"

[[record]]
sequence_text = "VMAGVGSPYV [HER-2/neu 773, reference compound]"
measure_name = "RA"
reported = 1.7

[[record]]
sequence_text = "MLGTHTMEV [gp100 178]"
measure_name = "RA"
reported = 0.3

[[record]]
sequence_text = "ELVSEFSRM [HER-2/neu 971, reference compound]"
measure_name = "RA"
reported = ">70.0"

[[record]]
sequence_text = "ILLVVVLGV [HER-2/neu 661]"
measure_name = "RA"
reported = ">60.0"

[[record]]
sequence_text = "KLTGDENFTI [Tyrosinase 224]"
measure_name = "RA"
reported = ">50.0"

[[record]]
sequence_text = "PLQPEQLQV [HER-2/neu 391]"
measure_name = "RA"
reported = ">70.0"

[[record]]
sequence_text = "MLLAVLYCL [Tyrosinase 1, reference compound]"
measure_name = "RA"
reported = ">60.0"

[[record]]
sequence_text = "YLVPQQGFFC [HER-2/neu 1023, reference compound]"
measure_name = "RA"
reported = 19.6

[[record]]
sequence_text = "LLDGTATLRL [gp 100 457, reference compound]"
measure_name = "RA"
reported = 1.6

[[record]]
sequence_text = "QLMPYGCLL [HER-2/neu 799, reference compound]"
measure_name = "RA"
reported = 1.0

[[record]]
sequence_text = "ILTVILGVL [Mart-1 32, reference compound]"
measure_name = "RA"
reported = 21.1

[[record]]
sequence_text = "GILGPVFTL [Flu M58, reference compound]"
measure_name = "RA"
reported = 0.2

[[record]]
sequence_text = "VLVKSPNHV [HER-2/neu 851, reference compound]"
measure_name = "RA"
reported = 24.0

[[record]]
sequence_text = "SLADTNSLAV [gp100 570, reference compound]"
measure_name = "RA"
reported = 1.0


Data origin, for the record: patent US7976843B2
